B1: ZNF263 (parent)
chain: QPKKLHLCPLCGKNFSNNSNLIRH

- Variants of: B1
- Protocol text: protein stability index of a GFP-peptide fusion (GPS, HEK-293T) (PSI 1-6); higher = more stable;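 also: lentivirally expressed fusions sorted by FACS into six bins by GFP to DsRed ratio, PSI derived from sequencing read proportions per bin multiplied by bin number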
- Condition summary: c terminus: a fixed tail appended
Reported protein stability index values follow for various variants
Just the number, please.

> print(dat)
   changes                  measure  measured
1     N18M  protein stability index       2.5
2      C8N  protein stability index         3
3      K3Q  protein stability index      2.52
4     I22H  protein stability index      2.76
5     S16I  protein stability index      2.36

input: Look up protein stability index for this variant: `S19I`
output: 2.58

input: Entry `Q1G` please
output: 2.33

input: Entry `H6G` please
output: 2.39

input: Entry `K13D` please
output: 1.67

input: Entry `K3H` please
output: 2.82

input: Entry `P2R` please
output: 2.06

input: Entry `R23A` please
output: 3.08

input: Entry `K13P` please
output: 1.82

input: Entry `K3S` please
output: 2.56

input: Entry `P2I` please
output: 2.43

input: Entry `S16Q` please
output: 2.44
